I'd appreciate it if you could supply glycan array binding signal (z-score) values for the items below.
Target or test system: Fuc(a1-2)Gal(b1-4)GlcNAc(b1-2)[Fuc(a1-2)Gal(b1-4)GlcNAc(b1-4)]Man(a1-3)[Fuc(a1-2)Gal(b1-4)GlcNAc(b1-2)Man(a1-6)]Man(b1-4)GlcNAc(b1-4)GlcNAc
Experiment summary: glycan array binding signal (z-score within array); higher = stronger binding
Conditions: glycan notation: IUPAC condensed, linker removed
This is one part of a sample in which the strongest signals are shown more often than they occur.
Numbers only.

Illustrative cases are given below, each with its answer.
>  <Binder>
MAA (Maackia amurensis), P0DKL3 (protein) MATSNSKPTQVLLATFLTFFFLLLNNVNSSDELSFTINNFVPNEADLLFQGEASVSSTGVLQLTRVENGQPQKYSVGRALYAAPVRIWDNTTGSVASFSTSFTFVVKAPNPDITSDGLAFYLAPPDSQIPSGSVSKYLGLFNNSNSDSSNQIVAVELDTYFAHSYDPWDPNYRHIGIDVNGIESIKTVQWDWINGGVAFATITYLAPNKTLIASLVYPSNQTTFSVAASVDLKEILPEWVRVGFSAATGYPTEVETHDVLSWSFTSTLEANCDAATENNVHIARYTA

>  <glycan array binding signal (z-score)>
-0.059

$$$$
>  <Binder>
Gal 8 (Homo sapiens), O00214_1 (protein) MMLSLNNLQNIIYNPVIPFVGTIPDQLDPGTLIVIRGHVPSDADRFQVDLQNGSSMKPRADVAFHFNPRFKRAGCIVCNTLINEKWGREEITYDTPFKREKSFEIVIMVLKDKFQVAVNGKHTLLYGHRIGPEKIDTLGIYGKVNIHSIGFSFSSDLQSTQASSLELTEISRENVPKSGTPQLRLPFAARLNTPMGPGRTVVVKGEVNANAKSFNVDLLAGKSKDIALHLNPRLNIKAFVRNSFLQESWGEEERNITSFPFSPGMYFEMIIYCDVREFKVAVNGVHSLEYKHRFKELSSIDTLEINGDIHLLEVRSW

>  <glycan array binding signal (z-score)>
-1.24

$$$$
>  <Binder>
ABA (Agaricus bisporus), Q00022 (protein) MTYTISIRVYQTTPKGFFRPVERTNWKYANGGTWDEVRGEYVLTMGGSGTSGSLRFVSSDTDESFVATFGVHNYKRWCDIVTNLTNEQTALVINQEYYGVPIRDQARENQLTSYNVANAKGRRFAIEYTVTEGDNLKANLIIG

>  <glycan array binding signal (z-score)>
-0.048

$$$$

Hi! Can you tell me glycan array binding signal (z-score) for each of these binders?
1. ArathEULS3 (Arabidopsis thaliana), Q945P1 (protein) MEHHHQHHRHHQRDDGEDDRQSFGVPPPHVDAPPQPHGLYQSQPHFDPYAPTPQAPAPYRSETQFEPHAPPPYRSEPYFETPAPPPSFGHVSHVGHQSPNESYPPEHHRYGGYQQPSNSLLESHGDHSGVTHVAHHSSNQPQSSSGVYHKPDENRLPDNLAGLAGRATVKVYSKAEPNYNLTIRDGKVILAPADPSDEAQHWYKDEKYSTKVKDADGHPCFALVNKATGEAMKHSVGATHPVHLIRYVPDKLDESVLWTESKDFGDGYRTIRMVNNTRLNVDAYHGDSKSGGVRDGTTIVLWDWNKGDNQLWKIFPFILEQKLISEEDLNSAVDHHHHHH
2. LICBM33A (Lactococcus lactis), Q9CE94 (protein) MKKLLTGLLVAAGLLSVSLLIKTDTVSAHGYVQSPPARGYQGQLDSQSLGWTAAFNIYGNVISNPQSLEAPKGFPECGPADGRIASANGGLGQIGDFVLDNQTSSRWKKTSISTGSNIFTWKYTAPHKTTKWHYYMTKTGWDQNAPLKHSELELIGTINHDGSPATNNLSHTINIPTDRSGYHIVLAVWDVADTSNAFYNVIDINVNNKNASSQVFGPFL
3. Sebin2 (Coprinopsis cinerea), A8PE78 (protein) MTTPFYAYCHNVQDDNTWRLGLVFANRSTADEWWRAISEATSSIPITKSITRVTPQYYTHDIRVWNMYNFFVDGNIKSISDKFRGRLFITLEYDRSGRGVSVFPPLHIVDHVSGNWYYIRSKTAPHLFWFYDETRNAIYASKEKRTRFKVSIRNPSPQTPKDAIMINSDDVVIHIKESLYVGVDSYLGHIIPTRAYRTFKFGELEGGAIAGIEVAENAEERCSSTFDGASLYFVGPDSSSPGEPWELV
4. ERGIC1-EDTA (Homo sapiens), Q969X5 (protein) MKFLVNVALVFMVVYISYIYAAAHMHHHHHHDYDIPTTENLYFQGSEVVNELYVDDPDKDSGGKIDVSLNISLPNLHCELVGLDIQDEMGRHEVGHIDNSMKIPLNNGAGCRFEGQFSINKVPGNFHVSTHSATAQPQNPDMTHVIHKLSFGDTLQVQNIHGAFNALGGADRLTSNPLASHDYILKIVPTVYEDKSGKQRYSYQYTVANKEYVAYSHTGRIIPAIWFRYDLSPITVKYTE
5. CFEM-SCL (Saccharomyces cerevisiae), O13547 (protein) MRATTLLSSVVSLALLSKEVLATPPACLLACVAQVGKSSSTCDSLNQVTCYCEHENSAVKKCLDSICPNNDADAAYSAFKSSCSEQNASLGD
6. CALR truncated at D342 (Homo sapiens) (protein) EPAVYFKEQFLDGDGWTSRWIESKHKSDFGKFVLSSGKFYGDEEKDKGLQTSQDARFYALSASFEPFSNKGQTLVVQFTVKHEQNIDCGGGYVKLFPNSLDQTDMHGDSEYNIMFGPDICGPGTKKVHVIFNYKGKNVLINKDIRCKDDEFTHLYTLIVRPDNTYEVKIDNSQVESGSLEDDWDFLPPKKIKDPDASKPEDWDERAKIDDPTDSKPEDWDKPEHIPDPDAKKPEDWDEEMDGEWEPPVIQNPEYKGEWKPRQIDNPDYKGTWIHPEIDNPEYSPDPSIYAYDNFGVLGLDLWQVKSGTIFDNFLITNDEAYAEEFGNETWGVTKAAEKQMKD

Out:
[0.36, 6.68, 0.019, 2.88, -0.213, 2.76]
